Here's what we have: Ki numbers for Cannabinoid receptor 1 (Rattus norvegicus, UniProt P20272).
Give just the numeric value; nM need not be written.

In the examples that follow, each entry is paired with its recorded Ki.
| smi | meas value |
| --- | --- |
| CC1(C)Oc2cc(C3(CCCCBr)CCC3)cc(O)c2[C@@H]2CC(=O)CC[C@H]21 | 18 |
| CC1(C)Oc2cc(C3(CCCCCC#N)CCC3)cc(O)c2[C@@H]2C[C@H](O)CC[C@H]21 | 0.69 |
| CC1(C)Oc2cc(C3(CCCCCN4CCOCC4)CCC3)cc(O)c2[C@@H]2CC(=O)CC[C@H]21 | 1.9 |
| CC1(C)Oc2cc(C3(CCCCN=C=S)CCC3)cc(O)c2[C@@H]2C[C@H](O)CC[C@H]21 | 1.45 |
| CC1(C)Oc2cc(C3(CCCBr)CCC3)cc(O)c2[C@@H]2CC(=O)CC[C@H]21 | 45.7 |

Data request: Answer with Ki of CC1(C)Oc2cc(C3(CCCCN4CCOCC4)CCC3)cc(O)c2[C@@H]2C[C@H](O)CC[C@H]21 measured for Cannabinoid receptor 1 (Rattus norvegicus, UniProt P20272).
Data returned: 1.1

Data request: Fill in: Ki on Cannabinoid receptor 1 (Rattus norvegicus, UniProt P20272), entry CC1(C)Oc2cc(C3(CCCCN=C=S)CCC3)cc(O)c2[C@@H]2CC(=O)CC[C@H]21
Sequence (P20272 whole entry): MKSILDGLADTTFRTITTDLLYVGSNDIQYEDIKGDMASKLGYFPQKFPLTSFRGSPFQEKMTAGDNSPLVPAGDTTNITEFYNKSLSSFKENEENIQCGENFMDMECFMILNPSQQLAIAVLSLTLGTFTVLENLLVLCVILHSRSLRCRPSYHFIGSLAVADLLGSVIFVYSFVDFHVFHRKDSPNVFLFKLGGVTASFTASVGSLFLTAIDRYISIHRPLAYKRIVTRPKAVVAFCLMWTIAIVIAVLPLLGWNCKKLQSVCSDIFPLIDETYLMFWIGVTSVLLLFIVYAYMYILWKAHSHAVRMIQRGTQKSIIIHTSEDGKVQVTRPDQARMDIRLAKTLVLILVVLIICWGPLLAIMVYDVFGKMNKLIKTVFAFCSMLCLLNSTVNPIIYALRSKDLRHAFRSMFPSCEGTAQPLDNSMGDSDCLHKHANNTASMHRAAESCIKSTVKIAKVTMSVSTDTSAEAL
Data returned: 8.2

Data request: Report its Ki with Cannabinoid receptor 1 (Rattus norvegicus, UniProt P20272) as the test system: CC1(C)Oc2cc(C3(CCCCCN=[N+]=[N-])CCC3)cc(O)c2[C@@H]2CC(=O)CC[C@H]21
Data returned: 0.66

###

Hi! I'm sharing some pKi results obtained with Cannabinoid receptor 1 (Rattus norvegicus).
// pKi: -log10(molar conc.)

| smi | pKi |
| --- | --- |
| CC1(C)Oc2cc(C3(CCCCCC#N)CCC3)cc(O)c2[C@@H]2CC(=O)CC[C@H]21 | 9.26 |
| CC1(C)Oc2cc(C3(CCCCCN=C=S)CCC3)cc(O)c2[C@@H]2CC(=O)CC[C@H]21 | 8.31 |
| CC1(C)Oc2cc(C3(CCCCCCBr)CCC3)cc(O)c2[C@@H]2C[C@H](O)CC[C@H]21 | 9.42 |

Now look at this one.
Data request: Specify measured pKi for CC1(C)Oc2cc(C3(CCCCCN=[N+]=[N-])CCC3)cc(O)c2[C@@H]2C[C@@H](O)CC[C@H]21 .
Data returned: 9.04

###

Target: Cannabinoid receptor 1 (Homo sapiens, UniProt P21554)
Sequence (P21554 whole entry): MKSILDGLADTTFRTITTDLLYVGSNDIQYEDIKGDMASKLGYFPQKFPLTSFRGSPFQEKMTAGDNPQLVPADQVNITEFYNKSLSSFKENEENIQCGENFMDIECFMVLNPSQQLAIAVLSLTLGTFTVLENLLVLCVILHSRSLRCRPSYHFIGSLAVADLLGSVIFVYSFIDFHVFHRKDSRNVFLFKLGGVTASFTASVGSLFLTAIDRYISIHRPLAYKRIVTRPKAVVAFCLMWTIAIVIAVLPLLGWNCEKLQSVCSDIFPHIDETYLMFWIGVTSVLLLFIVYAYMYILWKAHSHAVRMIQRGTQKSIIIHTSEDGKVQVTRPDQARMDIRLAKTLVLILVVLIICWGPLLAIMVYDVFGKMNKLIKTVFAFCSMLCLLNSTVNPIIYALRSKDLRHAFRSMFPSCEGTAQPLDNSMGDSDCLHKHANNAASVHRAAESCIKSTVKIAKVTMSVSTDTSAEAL
Experiment: Agonist activity at human CB1 receptor expressed in CHO-K1 cells assessed as assessed as induction of beta-arrestin 2 recruitment measured for 90 mins by PathHunter assay
Type: functional, cell-based
measure: pEC50
Please note pEC50 is a logarithmic value: minus log10 of concentration in mol/L. Answer with that number alone.

Data request: Report pEC50 from Cannabinoid receptor 1 (Homo sapiens, UniProt P21554) testing of CC1(C)Oc2cc(C3(CCCCCC#N)CCC3)cc(O)c2[C@@H]2CC(=O)CC[C@H]21
Data returned: 8.12

###

The compounds listed here are annotated with their pKi.
Biological target: Cannabinoid receptor 1 (Rattus norvegicus)
The read-out pKi is expressed as -log10 of concentration in moles per litre.

Worked examples follow.
| smi | target under test | pKi |
| --- | --- | --- |
| CC1(C)Oc2cc(C3(CCCBr)CCC3)cc(O)c2[C@@H]2C[C@H](O)CC[C@H]21 | Cannabinoid receptor 1 (Rattus norvegicus) | 8.06 |
| CC1(C)Oc2cc(C3(CCCCN=[N+]=[N-])CCC3)cc(O)c2[C@@H]2CC(=O)CC[C@H]21 | Cannabinoid receptor 1 (Rattus norvegicus) | 7.96 |
| CC1(C)Oc2cc(C3(CCCCCCBr)CCC3)cc(O)c2[C@@H]2C[C@@H](O)CC[C@H]21 | Cannabinoid receptor 1 (Rattus norvegicus) | 9.00 |

Here is the next item to consider.
Data request: Return the recorded pKi value; entry: CC1(C)Oc2cc(C3(CCCCC#N)CCC3)cc(O)c2[C@@H]2C[C@H](O)CC[C@H]21
Data returned: 9.26

# credit: ChEMBL document CHEMBL5154703
